Hello, the source for this data is ChEMBL document CHEMBL2034832, in case you need it.

Target: Nucleic Acid
Experiment: Binding affinity to immobilised c-myc quadruplex DNA G4 by SPR assay
MEASURED_PARAMETER: Kd (µM)

(P) COc1ccc2c(cc3c([n+]2C)-c2cc4c(cc2CC3)OCO4)c1OCCCN1CCCC1
(Q) COc1ccc2c(cc3c([n+]2C)-c2cc4c(cc2CC3)OCO4)c1OCCCN1CCCCC1
**Query** Please compare: P and Q . Report which one has the smaller Kd value. Write the label of whichever entry you select.
**Result** P

(I) COc1ccc2c(cc3c([n+]2C)-c2cc4c(cc2CC3)OCO4)c1OCCCNC1CCCCC1
(II) CCN(CC)CCOc1c(OC)ccc2nc3c(cc12)CCc1cc2c(cc1-3)OCO2
(III) COc1cc2c(cc1OC)-c1c(cc3c(OCCCN4CCCC4)c(OC)ccc3[n+]1C)CC2
(IV) CCN(CC)CCCOc1c(OC)ccc2nc3c(cc12)CCc1cc(OC)c(OC)cc1-3
**Query** Output the entries ranked by Kd from maximum down to minimum. Please list the labels according to the requested order.
**Result** IV, II, I, III

(P) COc1ccc2c(cc3c([n+]2C)-c2cc4c(cc2CC3)OCO4)c1OCCCN1CCN(C)CC1
(Q) COc1ccc2nc3c(cc2c1OCCN1CCCC1)CCc1cc2c(cc1-3)OCO2
(R) CCN(CC)CCCOc1c(OC)ccc2nc3c(cc12)CCc1cc2c(cc1-3)OCO2
**Query** Write the entries in order, lowest recorded Kd first. Please list the labels according to the requested order.
**Result** P, Q, R
(P: 0.8 µM, Q: 1.4 µM, R: 3 µM)

(A) CCN(CC)CCCOc1c(OC)ccc2c1cc1c([n+]2C)-c2cc3c(cc2CC1)OCO3
(B) COc1cc2c(cc1OC)-c1nc3ccc(OC)c(OCCCN4CCCCC4)c3cc1CC2
**Query** Kindly identify which of A and B has the larger recorded Kd value. Write the label of whichever entry you select.
**Result** B
(B: 2.8 µM, A: 0.6 µM)

* * *

Tested on: Nucleic Acid
Assay: Binding affinity to c-myc quadruplex DNA FPu18T assessed as change in melting temperature at 2 uM by FRET-melting assay
Assay type: nucleic-acid assay
MEASURED_PARAMETER: ΔTm (°C)

MOL_SMILES | READOUT_UNIT | ΔTm
COc1cc2c(cc1OC)-c1c(cc3c(OCCCN4CCCCC4)c(OC)ccc3[n+]1C)CC2 | °C | 23.2

(P) COc1ccc2c(cc3c([n+]2C)-c2cc4c(cc2CC3)OCO4)c1OCCCN1CCCCC1
(Q) COc1cc2c(cc1OC)-c1nc3ccc(OC)c(OCCCN4CCCCC4)c3cc1CC2
**Query** Kindly identify which of P and Q has the larger recorded ΔTm value. Write the label of whichever entry you select.
**Result** P

* * *

Test system: Nucleic Acid
Test: Binding affinity to c-myc quadruplex DNA FPu18T assessed as change in melting temperature at 2 uM by FRET-melting assay in the presence of excess of ds26 duplex DNA
Format: nucleic-acid assay
Activity calls are given as the source filed them. The calls are words filed in the database; no cut-off is given here.

MOL_SMILES | Activity
CCN(CC)CCCOc1c(OC)ccc2nc3c(cc12)CCc1cc(OC)c(OC)cc1-3 | Active
CCN(CC)CCCOc1c(OC)ccc2nc3c(cc12)CCc1cc2c(cc1-3)OCO2 | Active
CCN(CC)CCOc1c(OC)ccc2nc3c(cc12)CCc1cc2c(cc1-3)OCO2 | Active

* * *

System: Nucleic Acid
Assay: Binding affinity to duplex DNA F10T assessed as change in melting temperature at 2 uM by FRET-melting assay
Format: nucleic-acid assay
MEASURED_PARAMETER: ΔTm (°C)

// solved cases for ΔTm follow
MOL_SMILES | ΔTm, °C
COc1ccc2nc3c(cc2c1OCCN1CCCC1)CCc1cc2c(cc1-3)OCO2 | 1
COc1ccc2c(cc3c([n+]2C)-c2cc4c(cc2CC3)OCO4)c1OCCCN1CCCC1 | 1.1
COc1cc2c(cc1OC)-c1nc3ccc(OC)c(OCCCN4CCCCC4)c3cc1CC2 | 1

(a) COc1ccc2c(cc3c([n+]2C)-c2cc4c(cc2CC3)OCO4)c1OCCCN1CCN(C)CC1
(b) CCN(CC)CCCOc1c(OC)ccc2c1cc1c([n+]2C)-c2cc3c(cc2CC1)OCO3
**Query** Please compare: a and b . Report which one has the smaller ΔTm value. Write the label of whichever entry you select.
**Result** a

(a) COc1ccc2c(cc3c([n+]2C)-c2cc4c(cc2CC3)OCO4)c1OCCCNC1CCCCC1
(b) CCN(CC)CCCOc1c(OC)ccc2nc3c(cc12)CCc1cc(OC)c(OC)cc1-3
**Query** Kindly identify which of a and b has the larger recorded ΔTm value. Write the label of whichever entry you select.
**Result** a
(a: 0.9 °C, b: 0.4 °C)

(a) COc1ccc2c(cc3c([n+]2C)-c2cc4c(cc2CC3)OCO4)c1OCCCN1CCCCC1
(b) COc1cc2c(cc1OC)-c1c(cc3c(OCCCN4CCCCC4)c(OC)ccc3[n+]1C)CC2
(c) CCN(CC)CCOc1c(OC)ccc2nc3c(cc12)CCc1cc2c(cc1-3)OCO2
**Query** Output the entries ranked by ΔTm from maximum down to minimum. Please list the labels according to the requested order.
**Result** c, b, a

* * *

System: Nucleic Acid
Test: Binding affinity to c-myc quadruplex DNA FPu18T assessed as change in melting temperature at 2 uM by FRET-melting assay
Type: nucleic-acid assay
MEASURED_PARAMETER: ΔTm (°C)

// solved cases for ΔTm follow
MOL_SMILES | READOUT_UNIT | ΔTm
COc1ccc2c(cc3c([n+]2C)-c2cc4c(cc2CC3)OCO4)c1OCCCN1CCN(C)CC1 | °C | 19
CCN(CC)CCCOc1c(OC)ccc2c1cc1c([n+]2C)-c2cc3c(cc2CC1)OCO3 | °C | 21.8
COc1cc2c(cc1OC)-c1c(cc3c(OCCCN4CCCC4)c(OC)ccc3[n+]1C)CC2 | °C | 25.4
CCN(CC)CCCOc1c(OC)ccc2nc3c(cc12)CCc1cc(OC)c(OC)cc1-3 | °C | 11.2
COc1ccc2nc3c(cc2c1OCCN1CCCC1)CCc1cc2c(cc1-3)OCO2 | °C | 5.3

(a) CCN(CC)CCOc1c(OC)ccc2nc3c(cc12)CCc1cc2c(cc1-3)OCO2
(b) COc1ccc2c(cc3c([n+]2C)-c2cc4c(cc2CC3)OCO4)c1OCCCN1CCCC1
**Query** Please compare: a and b . Report which one has the smaller ΔTm value. Write the label of whichever entry you select.
**Result** a
(a: 6.3 °C, b: 22.2 °C)

(P) CCN(CC)CCCOc1c(OC)ccc2nc3c(cc12)CCc1cc2c(cc1-3)OCO2
(Q) COc1ccc2c(cc3c([n+]2C)-c2cc4c(cc2CC3)OCO4)c1OCCCNC1CCCCC1
**Query** Please compare: P and Q . Report which one has the smaller ΔTm value. Write the label of whichever entry you select.
**Result** P

* * *

Target: Nucleic Acid
Assay: Binding affinity to c-myc quadruplex DNA Pu27 assessed as inhibition of c-myc amplification by PCR-stop assay
MEASURED_PARAMETER: IC50 (µM)

// solved cases for IC50 follow
MOL_SMILES | MEASURED
CCN(CC)CCCOc1c(OC)ccc2c1cc1c([n+]2C)-c2cc3c(cc2CC1)OCO3 | 7.5
COc1cc2c(cc1OC)-c1c(cc3c(OCCCN4CCCC4)c(OC)ccc3[n+]1C)CC2 | 4.7
COc1ccc2c(cc3c([n+]2C)-c2cc4c(cc2CC3)OCO4)c1OCCCN1CCCCC1 | 5.4
COc1cc2c(cc1OC)-c1c(cc3c(OCCCN4CCCCC4)c(OC)ccc3[n+]1C)CC2 | 5

(A) COc1ccc2c(cc3c([n+]2C)-c2cc4c(cc2CC3)OCO4)c1OCCCNC1CCCCC1
(B) COc1ccc2c(cc3c([n+]2C)-c2cc4c(cc2CC3)OCO4)c1OCCCN1CCCC1
(C) COc1ccc2c(cc3c([n+]2C)-c2cc4c(cc2CC3)OCO4)c1OCCCN1CCN(C)CC1
**Query** Output the entries ranked by IC50 from maximum down to minimum. Please list the labels according to the requested order.
**Result** A, C, B
(A: 14 µM, C: 9.5 µM, B: 5.3 µM)

* * *

Target: Nucleic Acid
Assay: Binding affinity to c-myc quadruplex DNA Pu27 assessed as inhibition of c-myc amplification by PCR-stop assay
pIC50: −log10 of the molar value.
MEASURED_PARAMETER: pIC50

MOL_SMILES | MEASURED_PARAMETER | MEASURED
CCN(CC)CCCOc1c(OC)ccc2nc3c(cc12)CCc1cc2c(cc1-3)OCO2 | pIC50 | < 4.30
COc1ccc2nc3c(cc2c1OCCN1CCCC1)CCc1cc2c(cc1-3)OCO2 | pIC50 | < 4.30
COc1cc2c(cc1OC)-c1nc3ccc(OC)c(OCCCN4CCCCC4)c3cc1CC2 | pIC50 | < 4.30

**Query** Which pIC50 reading was recorded for the compound `CCN(CC)CCOc1c(OC)ccc2nc3c(cc12)CCc1cc2c(cc1-3)OCO2` ?
**Result** < 4.30

**Query** Which pIC50 reading was recorded for the compound `CCN(CC)CCCOc1c(OC)ccc2nc3c(cc12)CCc1cc(OC)c(OC)cc1-3` ?
**Result** < 4.30
